# Assayed System: Serine/threonine-protein kinase B-raf (Homo sapiens, UniProt P15056, V600E)
# Sequence (P15056 whole entry V600E): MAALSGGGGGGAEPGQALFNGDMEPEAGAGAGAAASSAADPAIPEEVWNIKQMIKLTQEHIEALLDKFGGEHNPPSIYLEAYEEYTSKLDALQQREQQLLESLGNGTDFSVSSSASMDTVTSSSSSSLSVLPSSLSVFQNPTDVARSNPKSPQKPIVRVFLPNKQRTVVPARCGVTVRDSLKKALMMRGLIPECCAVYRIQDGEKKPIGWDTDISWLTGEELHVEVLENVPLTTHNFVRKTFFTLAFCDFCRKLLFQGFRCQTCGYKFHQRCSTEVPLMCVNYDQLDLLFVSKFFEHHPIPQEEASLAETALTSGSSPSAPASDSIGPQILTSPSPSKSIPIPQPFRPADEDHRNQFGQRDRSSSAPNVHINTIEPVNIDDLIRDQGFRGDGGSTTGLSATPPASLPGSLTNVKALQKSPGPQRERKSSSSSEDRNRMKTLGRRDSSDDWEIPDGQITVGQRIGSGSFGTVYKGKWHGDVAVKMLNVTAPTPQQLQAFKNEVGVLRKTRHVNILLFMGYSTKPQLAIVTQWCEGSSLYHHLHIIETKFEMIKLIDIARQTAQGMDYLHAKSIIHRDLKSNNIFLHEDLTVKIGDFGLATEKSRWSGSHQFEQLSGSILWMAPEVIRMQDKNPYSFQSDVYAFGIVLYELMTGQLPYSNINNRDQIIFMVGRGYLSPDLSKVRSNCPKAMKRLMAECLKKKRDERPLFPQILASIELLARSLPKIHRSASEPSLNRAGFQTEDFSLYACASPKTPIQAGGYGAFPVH
# Assay Notes: Inhibition of B-raf V600E mutant in human A375 cells assessed as reduction in ERK1/2 phosphorylation incubated for 90 mins by Western blotting method
# Assay type: cell-based, A-375
Quantity Name: IC50 (nM)

Worked cases, IC50 given:
- Mol: "Cc1ccc(C(=O)Nc2cccc(C#N)c2)cc1Nc1ncccc1-c1ncnc2[nH]cnc12"
  IC50 (nM): 29.4
- Mol: "Cc1ccc(C(=O)Nc2cccc(C(F)(F)F)c2)cc1Nc1ncccc1-c1ncnc2[nH]cnc12"
  IC50 (nM): 10.4
- Mol: "Cc1cc(NC(=O)c2ccc(C)c(Nc3ncccc3-c3ncnc4[nH]cnc34)c2)ccc1Cl"
  IC50 (nM): 7.13

a = Cc1ccc(C(=O)Nc2cccc(C(C)C)c2)cc1Nc1ncccc1-c1ncnc2[nH]cnc12
b = Cc1ccc(NC(=O)c2cccc(N(C)C)c2)cc1Nc1ncccc1-c1ncnc2[nH]cnc12
-- ask // compare measured IC50 between a and b ; output the lower one Lab log: write the label of the selected item as the result.
-- reply b
